EXPERIMENT SUMMARY: Solubility assay (FaSSGF / FaSSIF)
Format: physicochemical
TEST CONTEXT: fassgf or other biorelevant, kinetic from dmso stock; FaSSGF solution pH 1.6, 100 μM from DMSO stock, 2 h at 25° C.; read-out: FaSSGF solubility
MEASURE NAME: solubility at 2 h (µM)
Just the number in µM, nothing appended.

IN: Look at this compound and give its reported solubility at 2 h. `CN(C)C(=O)N1CCN(c2cc(S(=O)(=O)NC3(C#N)CC3)cn3c(-c4nnc(C(F)(F)F)s4)ncc23)CC1`
OUT: 73.8

IN: Continue with `[2H]c1nc(-c2nnc(C(F)F)s2)n2cc(S(=O)(=O)NC3(C)COC3)cc(N3CCN(C(=O)C(C)C)CC3)c12`
OUT: 5.19

IN: Continue with `N#CC1(NS(=O)(=O)c2cc(N3CCN(C(=O)C4CNC4)CC3)c3cnc(-c4nnc(C(F)(F)F)s4)n3c2)CC1`
OUT: 80.6

Note: attention shifts to another entry.
IN: Look at this compound and give its reported solubility at 2 h. `CC1(NS(=O)(=O)c2cc(N3CCN(C(=O)C4CC4)CC3)c3cnc(-c4nnc(C(F)(F)F)s4)n3c2)COC1`
OUT: 21.5

These entries and their values trace back to patent US20260258035A1.
